# System: HCV genotype 1a (HCV-1a) replicon cells
# assay_name: HCV genotype 1a replicon luciferase assay (EC50)
# Type: cell-based, hepatitis C virus genotype 1a (H77 clone)
# experimental_parameters: 3 days, luciferase (Bright-Glo)
readout: EC50

Your task in this section: give EC50 for each listed record.
1. COC(=O)N[C@H](C(=O)N1CCC[C@H]1c1ncc(-c2ccc(-c3ccc(-c4[nH]c([C@@H]5CCCN5C(=O)[C@@H](NC(=O)OC)[C@@H](C)OC)c5c4COC5)cc3)cc2)[nH]1)[C@@H](C)OC [AG_080_A]
2. COC(=O)N[C@H](C(=O)N1CCC[C@H]1c1ccc(-c2ccc(-c3ccc(-c4cnc([C@@H]5CCCN5C(=O)C5(NC(=O)OC)CC5)[nH]4)cc3)cc2)[nH]1)C(C)C [AG_097]
3. COC(=O)N[C@H](C(=O)N1CCC[C@H]1c1ncc(-c2ccc(-c3ccc(-c4cnc([C@H]5C6CCC(C6)[C@@H]5C(=O)NC(C)c5cccnc5)[nH]4)cc3)cc2)[nH]1)C(C)C (single isomer, unassigned) [AA_204_A]

Output:
["0.001 to 0.1 nM", "10 to 100 nM", "0.101 to 1 nM"]
